TEST_NAME: Cytotoxicity against human HEK cells after 48 hrs by MTT assay
Type: functional, cell-based
CONDITION_SUMMARY: HEK293, 48 h
pIC50: −log10 of the molar value.

# LINE_NOTATION, pIC50
measured = [
    ("CCCCCCCCCCC[C@H](O)[C@H](C)N", 4.74),
]
